# test_details: M. tuberculosis growth inhibition, HTS (AID 449762);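 also: bacterial growth assessed after seven days of incubation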
# test_settings: M. tuberculosis H37Rv growth inhibition, 7H9 media; at 25 µM; active compounds read high
Screen size: about 330,000 compounds; about 1,900 (0.58%) were called active. Roughly 4% stayed inconclusive and do not appear here. Only a sample is shown. Measured potencies and affinities stand elsewhere.

{"compound": "CN1CCN(C(=O)/C(=C/c2ccc(F)cc2)c2ccsc2)CC1", "inhibition [%]": -3.93}
{"compound": "Cc1ccccc1N1CC(=O)N(c2ccccc2C)CC1=O", "inhibition [%]": -15.8}
{"compound": "O=C(Nc1nnc(C2CC2)s1)c1cncc(Br)c1", "inhibition [%]": 5.39}
{"compound": "CCOc1ccc(NC(=O)CCc2nnc3ccc(N4CCN(C)CC4)nn23)cc1", "inhibition [%]": 1.67}
{"compound": "CCc1nc2ccccc2c(C(=O)Nc2cccc(C)c2)c1C", "inhibition [%]": 7.7}
{"compound": "COc1ccc(NC(=O)CCc2nnc3ccc(N4CCC(C)CC4)nn23)cc1", "inhibition [%]": -0.59}
{"compound": "O=S1(=O)CCC(n2ncc3c2/C(=C/c2ccccc2)CC3)C1 (stereo unspecified)", "inhibition [%]": 4.34}
{"compound": "Cc1ccc(C(=O)Cn2cncn2)cc1", "inhibition [%]": 9.3}
{"compound": "Cn1c2ccccc2c(=O)c2ccc(F)cc21", "inhibition [%]": 38.4}
{"compound": "CC(C)(C)C(=O)Nc1cc(C(F)(F)F)ccc1-n1ccnc1", "inhibition [%]": -0.21}
{"compound": "COCCN(C(=O)c1cc(-c2ccncc2)nc2ccccc12)c1c(N)n(CC(C)C)c(=O)[nH]c1=O", "inhibition [%]": -4.69}
